Please respond with reported tissue uptake at 4 h for every item in the list.
Test: Tissue distribution in Swiss nu/nu SSCUP mice bearing Dau
Assay type: in vivo, human
Details: mouse, liver, iv, 3 umol/animal, 4 h; read-out: liver % ID/g
The reply must contain the numeric value and, after it, the unit.

-- ask Please give measured tissue uptake at 4 h of the following entry: CCN(CC)CCNC(=O)c1ccc(I)cc1 [Derivative A, N-(2-diethylaminoethyl) 4-iodo benzamide]
-- reply 2.1 %ID/g

-- ask Please give measured tissue uptake at 4 h of the following entry: CCNCCNC(=O)c1ccc(I)cc1 [Derivative B, N-(2-ethylaminoethyl) 4-iodo benzamide]
-- reply 1.52 %ID/g

====

Test: Tissue distribution in Swiss nu/nu SSCUP mice bearing Dau
Type: in vivo, human
Conditions: mouse, liver, iv, 3 umol/animal; 12 h; read-out: liver % ID/g
Please respond with reported tissue uptake at 12 h for every item in the list.
Respond numerically; units are %ID/g and should not be typed.

-- ask Please give measured tissue uptake at 12 h of the following entry: CCNCCNC(=O)c1ccc(I)cc1 [Derivative B, N-(2-ethylaminoethyl) 4-iodo benzamide]
-- reply 0.2

-- ask Please give measured tissue uptake at 12 h of the following entry: CCN(CC)CCNC(=O)c1ccc(I)cc1 [Derivative A, N-(2-diethylaminoethyl) 4-iodo benzamide]
-- reply 0.3

====

Test: Tissue distribution in Swiss nu/nu SSCUP mice bearing Beu
Format: in vivo, human
Settings: mouse, muscle, iv, 3 umol/animal, 4 h; read-out: muscle % ID/g
Method: The study of the tissue distribution of the ^125 I labelled compounds was performed in mice bearing grafted melanomas (cf. autoradiograms above). […] The animals are sacrificed at different time intervals of 1 to 24 hours after the injection. The blood is collected and the principal organs are excised. Aliquots are weighed and the radioactivity of the samples is measured in a […] 1191 counter (analytic tracer). The counting yield for iodine 125 is 60%. […]
Value type: tissue uptake at 4 h (%ID/g)
Respond numerically; units are %ID/g and should not be typed.

-- ask Please give measured tissue uptake at 4 h of the following entry: CCN(CC)CCNC(=O)c1ccc(I)cc1 [Derivative A, N-(2-diethylaminoethyl) 4-iodo benzamide]
-- reply 0.51

====

Test: Tissue distribution in Swiss nu/nu SSCUP mice bearing Beu
Type: in vivo, human
Conditions: mouse, brain, iv, 3 umol/animal, 6 h; read-out: brain % ID/g
Value type: tissue uptake at 6 h

-- ask Please give measured tissue uptake at 6 h of the following entry: CCN(CC)CCNC(=O)c1ccc(I)cc1 [Derivative A, N-(2-diethylaminoethyl) 4-iodo benzamide]
-- reply 0.28 %ID/g

====

Assay: Tissue distribution in Swiss nu/nu SSCUP mice bearing Beu
Format: in vivo, human
Settings: mouse, tumor, iv, 3 umol/animal, 1 h; read-out: tumor % ID/g
Value type: tissue uptake at 1 h

-- ask Please give measured tissue uptake at 1 h of the following entry: CCN(CC)CCNC(=O)c1ccc(I)cc1 [Derivative A, N-(2-diethylaminoethyl) 4-iodo benzamide]
-- reply 3.51 %ID/g

====

Assay: Tissue distribution in Swiss nu/nu SSCUP mice bearing Beu
Assay type: in vivo, human
Conditions: mouse, spleen, iv, 3 umol/animal; 4 h; read-out: spleen % ID/g
Value type: tissue uptake at 4 h (%ID/g)
Respond numerically; units are %ID/g and should not be typed.

-- ask Please give measured tissue uptake at 4 h of the following entry: CCN(CC)CCNC(=O)c1ccc(I)cc1 [Derivative A, N-(2-diethylaminoethyl) 4-iodo benzamide]
-- reply 1.07
